- Tested on: RARg homodimer (NR concentration 270 nM)
- experimental protocol: PBM binding z-score (relative to random genomic background probes); higher = stronger binding; sequences stand for … in GC…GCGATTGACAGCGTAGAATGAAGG
Consider the following sequences and their measured PBM binding z-score readings.
Give a plain numeric answer without units written out.

residue string | measured quantity | observed result
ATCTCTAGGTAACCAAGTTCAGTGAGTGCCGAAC | PBM binding z-score | 0.796
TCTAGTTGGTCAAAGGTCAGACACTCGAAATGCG | PBM binding z-score | 5.15
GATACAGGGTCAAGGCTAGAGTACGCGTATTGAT | PBM binding z-score | 5.01
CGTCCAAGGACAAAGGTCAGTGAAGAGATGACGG | PBM binding z-score | 4.95
CGAACTAGTTCATCCAGGACAGTGAATACATTGA | PBM binding z-score | 1.39

What is its PBM binding z-score for RARg homodimer (NR concentration 270 nM)? Entry: AGTCAAAGATCATCTAGGTAACGTAAGATATGCT 0.343

Please state recorded PBM binding z-score (tested on RARg homodimer (NR concentration 270 nM)) of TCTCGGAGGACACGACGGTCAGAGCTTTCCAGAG 1.65

Under RARg homodimer (NR concentration 270 nM): PBM binding z-score value of TATACAGGGTCAAGGGCCAGAGTACGAATGTCGA ? 5.33

Provide the documented PBM binding z-score with RARg homodimer (NR concentration 270 nM) as the system for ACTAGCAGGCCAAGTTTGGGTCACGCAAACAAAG 2.19

Please tell me: PBM binding z-score of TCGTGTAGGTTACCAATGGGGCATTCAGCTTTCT , system RARg homodimer (NR concentration 270 nM)? 0.613

Test system RARg homodimer (NR concentration 270 nM); read-out PBM binding z-score; what value for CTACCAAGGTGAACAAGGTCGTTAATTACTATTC ? 1.55

Find the measured PBM binding z-score: item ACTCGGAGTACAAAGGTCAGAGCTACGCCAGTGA , target or system RARg homodimer (NR concentration 270 nM). 4.7

---

Entries annotated with measured PBM binding z-score
- Test system: PPARg:RXRa IVT, anti-PPARg (NR concentration 270 nM, RXRa partner concentration 90 nM)
- experimental protocol: PBM binding z-score (relative to random genomic background probes); higher = stronger binding; sequences stand for … in GC…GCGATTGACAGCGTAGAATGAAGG
Please state the value as a number alone, without comment.

Dear colleague, I am looking for the recorded PBM binding z-score of the following sequence: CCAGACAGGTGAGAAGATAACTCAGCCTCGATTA 0.216

---

The sequences listed here are annotated with their PBM binding z-score.
- Tested on: VDR homodimer (NR concentration 270 nM)
- experimental protocol: PBM binding z-score (relative to random genomic background probes); higher = stronger binding; sequences stand for … in GC…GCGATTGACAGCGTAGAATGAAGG
Would you mind answering with just the numeric figure?

Below, each entry is followed by its recorded PBM binding z-score result.
residue string | PBM binding z-score
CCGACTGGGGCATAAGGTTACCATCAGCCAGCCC | -0.0619
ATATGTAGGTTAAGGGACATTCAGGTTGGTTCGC | 1.69
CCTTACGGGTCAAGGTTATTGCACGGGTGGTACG | 1.95
TAATATAGGTAAAGGTGAAAGTCGAACGATATGA | 0.489
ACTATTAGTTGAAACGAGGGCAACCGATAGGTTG | 1.1

Reported PBM binding z-score for GCATATCGGTAATACAAGGTGAAAGTCCGATTGT : what is it? -0.28

Record request: PBM binding z-score value, item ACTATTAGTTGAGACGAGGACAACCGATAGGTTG 0.657

Please look up its PBM binding z-score: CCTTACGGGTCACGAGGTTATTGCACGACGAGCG 2.55

---

- Tested on: RXRa DBDmut IVT, anti-RXR (DBD mutation: RXRa K156A/R161A, NR concentration 90 nM)
- experimental protocol: PBM binding z-score (relative to random genomic background probes); higher = stronger binding; sequences stand for … in GC…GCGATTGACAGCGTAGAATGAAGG
Please use 1 whenever PBM binding z-score is not below 0.6, and -1 whenever it is.

Is reported PBM binding z-score greater than or equal to 0.6 here: ATATGTAGGTTGAGGGTCATTCAGGTTGGTTCGC 1

Is reported PBM binding z-score greater than or equal to 0.6 here: GCGACTGAGGCATCAGCAGGTTACCATAACTTAA -1

Does the sequence TTTAGTTGGTCACGGAGGTCACACACGACGGGTA have recorded PBM binding z-score that is 0.6 or more? -1

Threshold query (PBM binding z-score >= 0.6) on ACTAGTTGGTCAGCGGAGGTCACACACAATTCGG 1

# check: PBM binding z-score of CGAACTAAGTCAGAACAGGACAGTGAAGGATGAT is greater than or equal to 0.6 -1

---

In this section, each of the sequences is paired with its reported PBM binding z-score.
- Test system: PPARg:RXRa IVT, anti-PPARg (NR concentration 270 nM, RXRa partner concentration 90 nM)
- experimental protocol: PBM binding z-score (relative to random genomic background probes); higher = stronger binding; sequences stand for … in GC…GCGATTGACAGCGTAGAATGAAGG
Give only the figure.

Please review the entries below; each comes with its answer.
residue string | assayed target | observed result
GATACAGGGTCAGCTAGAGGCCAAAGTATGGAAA | PPARg:RXRa IVT, anti-PPARg (NR concentration 270 nM, RXRa partner concentration 90 nM) | 2.73
CCTATTAGTTGGCCATAAGGGCAACCGAAGCTCG | PPARg:RXRa IVT, anti-PPARg (NR concentration 270 nM, RXRa partner concentration 90 nM) | 0.608
CGAACTAGGTCATCCAGGACAGTGCATACATTGA | PPARg:RXRa IVT, anti-PPARg (NR concentration 270 nM, RXRa partner concentration 90 nM) | 8.19
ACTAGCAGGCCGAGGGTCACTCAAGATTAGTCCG | PPARg:RXRa IVT, anti-PPARg (NR concentration 270 nM, RXRa partner concentration 90 nM) | 1.16
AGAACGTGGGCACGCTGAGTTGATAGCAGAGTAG | PPARg:RXRa IVT, anti-PPARg (NR concentration 270 nM, RXRa partner concentration 90 nM) | -0.143

// moving on: another record for PBM binding z-score
I have this sequence here, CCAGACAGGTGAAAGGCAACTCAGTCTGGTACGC , and I need its recorded PBM binding z-score. 1.08

---

PBM binding z-score listing for selected sequences.
- System: LXRa homodimer (NR concentration 270 nM)
- experimental protocol: PBM binding z-score (relative to random genomic background probes); higher = stronger binding; sequences stand for … in GC…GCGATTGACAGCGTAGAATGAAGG
No unit in the answer, only the number.

residue string | observed result
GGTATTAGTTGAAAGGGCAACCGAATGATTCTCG | 1.06
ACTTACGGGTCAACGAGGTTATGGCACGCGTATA | 0.89
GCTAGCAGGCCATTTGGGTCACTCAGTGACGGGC | -0.609
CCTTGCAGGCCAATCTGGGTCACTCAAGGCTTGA | -0.554
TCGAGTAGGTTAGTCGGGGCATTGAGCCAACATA | -0.78
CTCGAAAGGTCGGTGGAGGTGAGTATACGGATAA | -0.129
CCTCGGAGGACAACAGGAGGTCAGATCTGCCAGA | 2.76
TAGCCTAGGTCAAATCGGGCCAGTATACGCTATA | 0.78
CAAACTAGGTCAAGAGGTCATAGTCCGCTTCCCG | 5.4
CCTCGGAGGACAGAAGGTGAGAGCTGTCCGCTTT | -0.939

Item under review: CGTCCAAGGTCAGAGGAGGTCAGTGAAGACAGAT . Reported PBM binding z-score? 2.4

Record request: PBM binding z-score value, item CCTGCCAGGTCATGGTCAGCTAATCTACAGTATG -0.0461

---

- System: RARb homodimer (NR concentration 270 nM)
- experimental protocol: PBM binding z-score (relative to random genomic background probes); higher = stronger binding; sequences stand for … in GC…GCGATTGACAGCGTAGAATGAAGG
Measured PBM binding z-score values are reported for all entries that follow.
No unit in the answer, only the number.

Use these answered entries as a reference point.
residue string | assayed target | measured quantity | observed result
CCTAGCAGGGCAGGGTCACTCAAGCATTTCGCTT | RARb homodimer (NR concentration 270 nM) | PBM binding z-score | 3.05
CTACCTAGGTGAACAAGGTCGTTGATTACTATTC | RARb homodimer (NR concentration 270 nM) | PBM binding z-score | 1.73
TCTATTAGTTGAAGAGCAACCGACGAGTCCGTTT | RARb homodimer (NR concentration 270 nM) | PBM binding z-score | -0.385
CAGCCTAGGTCAGGGCCACTATAGGAGGAACGTT | RARb homodimer (NR concentration 270 nM) | PBM binding z-score | 2.67
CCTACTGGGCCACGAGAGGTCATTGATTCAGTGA | RARb homodimer (NR concentration 270 nM) | PBM binding z-score | 3.75
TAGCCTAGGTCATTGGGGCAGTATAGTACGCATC | RARb homodimer (NR concentration 270 nM) | PBM binding z-score | 3.31

I am curious: what PBM binding z-score value has been reported for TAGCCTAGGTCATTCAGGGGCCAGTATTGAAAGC ? 3.3

I am curious: what PBM binding z-score value has been reported for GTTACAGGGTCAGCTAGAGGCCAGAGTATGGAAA ? 3.54

State the recorded PBM binding z-score for this entry: CCTAGTCGGTCAGGAGGTCACACACCGGATATGA 4.67

I am curious: what PBM binding z-score value has been reported for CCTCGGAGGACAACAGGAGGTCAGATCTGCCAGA ? 3.64

State the recorded PBM binding z-score for this entry: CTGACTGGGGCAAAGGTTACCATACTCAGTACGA 2.6

Recorded PBM binding z-score of CCTGCTAGGTCAATGGACAGCTAAAGCAGCTCGC , please. 2.51
